| Smiles Representation | logP |
| --- | --- |
| CN(N=Cc1ccc([N+](=O)[O-])cc1)P(=O)(N1CC1)N1CC1 | 0.51 |
| CC(C)=NN(C)P(=O)(N1CC1)N1CC1 | 0.51 |
| CN(N=Cc1ccccc1)P(=O)(N1CC1)N1CC1 | 0.51 |
